Entries and their growth
# Tested on: E. coli TESEC Mtb Alr
# experimental.protocol: growth (OD600 after 10 h); higher = more growth (less inhibition)
# experimental.conditions: arabinose 100 nM; compound 0.1 mM; raw OD600 reference: median of DMSO wells 0.413, cell-free background 0.052
Structures can show the parent of a compound that is named as a salt.
Lab note: jot down the number only; don't add units.

Consider the worked cases shown below.
NC12CC3CC(CC(C3)C1)C2 [Adamantamine fumarate] :: 0.407
COc1cnc(NS(=O)(=O)c2ccc(N)cc2)nc1 :: 0.407
CC1(C)NC(=O)N(c2ccc([N+](=O)[O-])c(C(F)(F)F)c2)C1=O [Nilutamide] :: 0.396
CCS(=O)(=O)CCn1c([N+](=O)[O-])cnc1C :: 0.402
Cc1c(N(C)CS(=O)(=O)O)c(=O)n(-c2ccccc2)n1C :: 0.41
CC(N/C(=N\C#N)Nc1ccncc1)C(C)(C)C (stereo not drawn) :: 0.405
CCN(CC)C(=O)C1(c2ccccc2)CC1CN (stereo not drawn) [Milnacipran hydrochloride] :: 0.424
OCc1cc(C(O)CNCCCCCCOCCCCc2ccccc2)ccc1O (stereo not drawn) :: 0.349
CN(Cc1ccc(C(C)(C)C)cc1)Cc1cccc2ccccc12 [Butenafine Hydrochloride] :: 0.312
CN(C)CCCN1c2ccccc2Sc2ccccc21 [Promazine hydrochloride] :: 0.415

Query string: Please indicate growth recorded for Cc1cc(C(=O)NNCc2ccccc2)no1
Result string: 0.402

Query string: Give a short answer stating reported growth for C[C@@H]1C[C@H]2[C@@H]3C[C@H](F)C4=CC(=O)C=C[C@]4(C)[C@@]3(F)[C@@H](O)C[C@]2(C)[C@@]1(O)C(=O)COC(=O)C(C)(C)C [Flumethasone pivalate] .
Result string: 0.43

Query string: Note growth for the molecule shown: CC(C)CC(=O)N[C@H](C(=O)N[C@H](C(=O)N[C@@H](CC(C)C)[C@@H](O)CC(=O)N[C@@H](C)C(=O)N[C@@H](CC(C)C)[C@@H](O)CC(=O)O)C(C)C)C(C)C
Result string: 0.412

Query string: Note growth for the molecule shown: Clc1cccc(Cl)c1NC1=NCCN1 [Clonidine hydrochloride]
Result string: 0.407

Query string: Specify reported growth for the molecule shown: Nc1nc2c(ncn2COC(CO)CO)c(=O)[nH]1
Result string: 0.417

Query string: Return value of growth for input CC(C)NCC(O)c1ccc2ccccc2c1 (stereo not drawn) [Pronethalol hydrochloride] , no commentary.
Result string: 0.403

Query string: Report measured growth; entry is CC(C)NC[C@H](O)COc1cccc2ccccc12 [(S)-propranolol hydrochloride]
Result string: 0.424

Query string: Provide growth value for the following molecule: CC(C)(C)NC[C@H](O)COc1cccc2c1CCCC2=O [(-) -Levobunolol hydrochloride]
Result string: 0.403

Query string: // fetch growth given entry CN(C)CCC=C1c2ccccc2C=Cc2ccccc21 [Cyclobenzaprine hydrochloride]
Result string: 0.401

Query string: Give a short answer stating reported growth for COc1ccccc1OCC(O)CN1CCN(CC(=O)Nc2c(C)cccc2C)CC1 (stereo not drawn) .
Result string: 0.423

----------
# Tested on: E. coli TESEC Alr+ wild-type control
# experimental.protocol: growth (OD600 after 10 h); higher = more growth (less inhibition)
# experimental.conditions: compound 0.1 mM; raw OD600 reference: median of DMSO wells 0.49, cell-free background 0.052
endpoint: growth
Just the number, please.

Cc1cccc(C)c1NC(=O)CN1CCN(CCCC(c2ccc(F)cc2)c2ccc(F)cc2)CC1 :: 0.563

Query string: Answer with the recorded growth of CC[C@@]1(O)C(=O)OCc2c1cc1n(c2=O)Cc2cc3c(CN(C)C)c(O)ccc3nc2-1 only.
Result string: 0.483
